Source listed as ChEMBL document CHEMBL1132199.

# Study system: Leukotriene B4 receptor (Homo sapiens, UniProt Q9NPC1+Q15722)
# Assay overview: In vitro leukotriene B4 receptor binding potency determined by displacement of [3H]- LTB4 from human neutrophils (PMNs)
Measurement label: IC50 (nM)

CCN(CC)C(=O)/C=C(\C)c1ccc(OCc2c(Cl)cccc2Cl)c(OCC(=O)O)c1
31
C/C(=C\C(=O)N(C)C)c1ccc(OC(C)c2ccccc2)cc1 (stereo not given)
2100
CCN(CC)C(=O)/C=C(\C)c1ccc(OC(C)c2ccccc2)c(CC(=O)O)c1 (stereo not given)
81
CCN(CC)C(=O)/C=C/c1ccc(OC(C)c2ccccc2)cc1 (stereo not given)
1600
CCN(CC)C(=O)/C=C(\C)c1ccc(OCc2ccccc2F)c(OCC(=O)O)c1
119

[1] CCN(CC)C(=O)CC(C)c1ccc(OC(C)c2ccccc2)cc1 (stereo not given)
[2] CCN(CC)C(=O)/C=C(\C)c1ccc(O[C@H](C)c2ccccc2)c(CC(=O)O)c1
[3] CCN(CC)C(=O)/C=C(\C)c1ccc(OC(C)c2ccccc2)cc1OCC(=O)O (stereo not given)
[4] CCN(CC)C(=O)/C=C(\C)c1ccc(CCc2ccccc2)c(OCC(=O)O)c1
Write the entries in order, lowest recorded IC50 first. Respond with the label ranking, as requested.
4, 2, 3, 1
